Recorded growth inhibition values for a group of compounds are listed next.
- Method Description: NCI Yeast Anticancer Drug Screen. Data for the rad50 strain (AID 155);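 further: 0% = growth of vehicle-only cultures of the same strain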
- Settings: S. cerevisiae rad50 strain growth inhibition; at 33.0 µM; hits give high values
This is part of a sample that, as a whole, favours compounds with a hit. Of some 79,000 tested, about 15% had one in any assay.
Entry rule: numbers only, all in %.

Some solved entries appear below for comparison.
INSERT INTO measurements (compound, recorded_endpoint, measurement_unit, reading) VALUES
  ('O=C1Nc2ccc(Br)cc2C1=Nc1ccc2c(c1)OCO2', 'growth inhibition', '%', -27),
  ('CC(C)/C(Cl)=N\OC(=O)Nc1ccc(F)cc1F', 'growth inhibition', '%', 32),
  ('COC(C(O)CO)C(O)C(O)C(=O)NNc1ccccc1 (stereo unspecified)', 'growth inhibition', '%', 79),
  ('O=C(/C=C/c1cc(Cl)cc(Cl)c1O)c1cccc(O)c1', 'growth inhibition', '%', 97),
  ('Cc1cc2cc3cc(C)c(N)cc3nc2cc1N', 'growth inhibition', '%', 86),
  ('COc1ccc2[nH]cc([C@@H]3C4CCC(C4)[C@H]3NCc3cccc(CN[C@H]4C5CCC(C5)[C@@H]4c4c[nH]c5ccc(OC)cc45)c3)c2c1', 'growth inhibition', '%', 51);

Item under review: CC1=C(SCc2ccccc2)C(=O)c2ccccc2C1=O . Reported growth inhibition? 81

Item under review: O=C1c2cccnc2C(=O)C2C3C=CC(C3)C12 (stereo unspecified) . Reported growth inhibition? 97

Item under review: CCOC(=O)COc1c(OC)cc(C2C3=C(COC3=O)Oc3cc4c(cc32)OCO4)cc1OC (stereo unspecified) . Reported growth inhibition? 3

Item under review: CC1OC(O[C@H]2/C=C/C=C/C=C/C=C/C=C/C=C/C=C/[C@H](C)[C@@H](O)[C@@H](C)[C@H](C)OC(=O)C[C@H](O)C[C@H](O)CC[C@@H](O)[C@H](O)C[C@H](O)C[C@]3(O)C[C@H](O)[C@@H](C(=O)O)[C@H](C2)O3)C(O)C(N)C1O (stereo partly specified) . Reported growth inhibition? 98

Item under review: Cc1ccc(S/C(=C\C(=O)O)c2ccccc2)cc1 . Reported growth inhibition? 30
